Test system: barnyardgrass
methodDescription: Test C flooded paddy test
Assay type: in vivo, Echinochloa crus-galli
runConditions: 500 g ai/ha, visual rating after 12 to 14 days, scale 0 to 100 (0 no effect, 100 complete control)
Would you mind labelling by Plant response rating, Barnyardgrass? At or over 40 is 1, under is 0.

- CCNC(=O)c1cccc(NC(=O)c2cn(C(C)(C)C)nc2CC)c1: 0
- CCn1nc(C(C)(C)C)cc1C(=O)Nc1cccc2c1CCN(C1CC1)C2=O: 0
- C=CCN(C)C(=O)c1cccc(NC(=O)c2cc(C(C)(C)C)nn2CC)c1: 1
- CCn1nc(C(C)(C)C)cc1C(=O)Nc1cccc(C(=O)N2CCCC2)n1: 1
- CCn1nc(C(C)(C)C)cc1C(=O)Nc1cccc(OC(F)F)c1: 1
